Cited source for all entries: PubChem BioAssay (NCI)

Entries and their GI50 values follow.
System: NCI-H23 lung
Assay: NCI tumour cell line growth inhibition, 48 h

Please review the entries below; each comes with its answer.
>>> df
                                   molecule  observed_value
0  Cc1nnc(C[C@@H]2C=C(c3ccc(Cl)cc3)c3ccccc3-n3c(C)nnc32)o1         1510 nM
1        O=c1cc(-c2ccc(Cl)cc2)[nH]c2ccccc12        63000 nM
2                Oc1ccc(NC(=S)Nc2ccccc2)cc1     > 100000 nM

Exercise: Record request: GI50 value, item "Cc1cc(F)c(C(=O)Nc2cccc(-c3nncn3C(C)C)n2)cc1-n1cnc(C2CC2)c1"
Key: 12000 nM

Exercise: And C[C@@H]1CC[C@H]2[C@@H](C)C(O)O[C@@H]3O[C@]4(C)CC[C@@H]1[C@]32OO4 (stereo partly specified) ?
Key: 442 nM

Exercise: Query "CCN(C(=O)N1CCN(c2cc3c(cc2F)c(=O)c(C(=O)O)cn3C2CC2)CC1)c1nc(-c2ccccc2)cs1" next
Key: 2790 nM

---

Test system: T-47D breast
Assay: NCI tumour cell line growth inhibition, 48 h
PROPERTY MEASURED: TGI

Example cases with answers are listed next.
>>> print(df.to_string())
                                   compound  property_measured  observed_value
0  CCOC(=O)/C(=C/CC/C(C)=C/CC/C(C)=C/CCc1ccoc1)CC(=O)N1CCCCC1                TGI         8.65 µM
1       N=c1c2sc3nc4ccccc4n3c2ncn1Cc1ccccc1                TGI        > 100 µM

Exercise: Param readout= TGI; system= T-47D breast; entry= "Cc1cccc2c(N)c3cccc(C(=O)NCC[N+](C)(C)Cc4ccc([N+](=O)[O-])n4C)c3nc12" ; returns value.
Key: > 85.9 µM

Exercise: Check "Cc1cc(OCc2nc(N)nc(N)c2-c2ccc(Cl)c(Cl)c2)ccc1[N+](=O)[O-]" too.
Key: > 51.5 µM

Exercise: Next record, please: "CC1=C(C(=O)NNC(=O)Cc2ccccc2)CC(C(=O)NNC(=O)Cc2ccccc2)=C(C)N1"
Key: > 100 µM

Exercise: Follow-up entry: COc1ccccc1C1C2=C(COC2=O)Oc2cc3c(cc21)OCO3 (configuration not stated)
Key: > 100 µM

Exercise: How about this compound: CC12NC(=C(C#N)C#N)C(C#N)=C3NC(N)=C(C#N)C(=C31)Oc1ccccc12 (configuration not stated)
Key: > 100 µM

---

Each entry below carries its recorded GI50.
Tested on: PC-3 prostate
Test: NCI tumour cell line growth inhibition, 48 h

Worked examples, 4 molecules total:
                                   molecule  observed_value
0  Cc1nc2ccccn2c1NC(=O)NN1C(=O)CSC1c1ccc(Cl)cc1 (stereo not given)        > 100 µM
1  Cc1cccc2c(C3=C(c4cn(C)c5ccccc45)C(=O)NC3=O)cn(C)c12         18.9 µM
2  C=CC(=O)N[C@@H]1CN(c2nc(Nc3cn(C)nc3OC)c3ncn(C)c3n2)C[C@H]1F         60.1 µM
3  Cc1cc(S(=O)(=O)/N=C(\N)Nc2cccc(O)c2)c(SCc2ccccc2)cc1Cl         12.1 µM

Exercise: Item "C[C@@H](Nc1nc(N[C@H](C)C(F)(F)F)nc(-c2cccc(Cl)n2)n1)C(F)(F)F" has what recorded GI50?
Key: 45.4 µM
